Subject Of Test: T1, human IL-25 expressed with a C-terminal myc-myc-hexahistidine tag (human)
T1 construct: also called human IL-25-MMH; hIL-25-MMH
T1 chain: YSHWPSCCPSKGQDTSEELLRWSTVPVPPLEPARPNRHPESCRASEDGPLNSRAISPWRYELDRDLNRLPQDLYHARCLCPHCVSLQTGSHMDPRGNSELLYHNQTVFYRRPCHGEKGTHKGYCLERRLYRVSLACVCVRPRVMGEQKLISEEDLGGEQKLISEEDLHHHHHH
Assay Details: SPR Biacore, captured mAb, 37°C
Record form. Attribute: Kd. Fill in for each entry.
Give bare numbers, in nM.

Binder	Unit Name	Numeric Result
H4H10905P (antibody, human IgG4, V domains shown) VH: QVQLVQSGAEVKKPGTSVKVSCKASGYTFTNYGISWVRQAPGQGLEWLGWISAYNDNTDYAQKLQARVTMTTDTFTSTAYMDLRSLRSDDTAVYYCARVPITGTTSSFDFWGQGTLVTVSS VL: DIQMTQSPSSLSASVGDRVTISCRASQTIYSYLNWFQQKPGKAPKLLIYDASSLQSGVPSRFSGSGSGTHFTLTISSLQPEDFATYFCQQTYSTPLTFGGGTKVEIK	nM	0.149
H4H10883P (antibody, human IgG4, V domains shown) VH: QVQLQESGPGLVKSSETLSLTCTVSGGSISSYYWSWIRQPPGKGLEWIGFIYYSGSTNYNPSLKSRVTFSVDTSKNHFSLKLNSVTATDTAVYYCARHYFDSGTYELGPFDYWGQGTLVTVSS VL: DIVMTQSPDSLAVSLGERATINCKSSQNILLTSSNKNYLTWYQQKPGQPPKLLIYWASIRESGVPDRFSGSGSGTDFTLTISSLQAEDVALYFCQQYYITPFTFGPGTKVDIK	nM	0.0304

Now look at this entry.
Problem: Could you share which Kd value was measured for H4H10901P (antibody, human IgG4, V domains shown) VH: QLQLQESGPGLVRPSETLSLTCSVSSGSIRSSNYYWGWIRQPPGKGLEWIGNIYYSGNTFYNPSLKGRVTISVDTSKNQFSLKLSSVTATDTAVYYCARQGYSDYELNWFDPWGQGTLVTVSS VL: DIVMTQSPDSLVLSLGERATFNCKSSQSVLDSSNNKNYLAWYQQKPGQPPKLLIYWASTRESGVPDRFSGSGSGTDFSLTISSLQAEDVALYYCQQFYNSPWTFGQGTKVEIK ?
Result: 0.0651
